biological target: Proprotein convertase subtilisin/kexin type 6 (Homo sapiens, UniProt P29122); test: Inhibition of recombinant human PACE4 using pGlu-Arg-Thr-Lys-Arg-AMC peptide as substrate by spectrofluorometry
Sequence (P29122 whole entry): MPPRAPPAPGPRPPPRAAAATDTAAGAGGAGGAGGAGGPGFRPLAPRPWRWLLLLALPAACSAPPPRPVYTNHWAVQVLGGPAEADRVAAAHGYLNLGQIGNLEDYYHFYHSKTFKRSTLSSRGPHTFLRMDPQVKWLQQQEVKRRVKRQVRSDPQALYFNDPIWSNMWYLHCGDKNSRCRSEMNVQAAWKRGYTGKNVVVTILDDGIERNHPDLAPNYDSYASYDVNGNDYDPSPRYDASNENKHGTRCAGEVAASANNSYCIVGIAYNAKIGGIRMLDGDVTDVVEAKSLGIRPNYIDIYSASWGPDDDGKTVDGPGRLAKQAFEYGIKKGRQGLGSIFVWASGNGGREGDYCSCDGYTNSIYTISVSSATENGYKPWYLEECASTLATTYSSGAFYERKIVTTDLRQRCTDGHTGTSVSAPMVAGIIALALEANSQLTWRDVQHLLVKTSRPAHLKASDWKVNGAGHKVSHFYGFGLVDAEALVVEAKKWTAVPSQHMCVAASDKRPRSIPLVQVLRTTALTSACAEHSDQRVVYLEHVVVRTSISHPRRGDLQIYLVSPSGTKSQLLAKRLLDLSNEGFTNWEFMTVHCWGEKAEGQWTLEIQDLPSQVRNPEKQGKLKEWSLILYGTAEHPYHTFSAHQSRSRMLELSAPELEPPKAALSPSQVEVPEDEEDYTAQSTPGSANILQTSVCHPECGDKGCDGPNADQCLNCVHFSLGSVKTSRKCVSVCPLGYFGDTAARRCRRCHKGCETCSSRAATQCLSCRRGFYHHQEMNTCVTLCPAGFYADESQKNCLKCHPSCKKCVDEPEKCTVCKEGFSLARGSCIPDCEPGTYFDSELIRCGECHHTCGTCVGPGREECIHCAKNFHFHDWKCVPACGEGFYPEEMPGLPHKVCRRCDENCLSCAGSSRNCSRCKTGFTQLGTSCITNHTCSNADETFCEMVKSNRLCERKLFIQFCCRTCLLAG
pKi: −log10 of the molar value.
observable: pKi

Check out these entries, answers already filled in.
>>> value("CC(=O)N[C@H](CC(C)C)C(=O)N[C@@H](CC(C)C)C(=O)N[C@@H](CC(C)C)C(=O)N[C@@H](CC(C)C)C(=O)N[C@@H](CCCNC(=N)N)C(=O)N[C@H](C(=O)N[C@@H](CCCCN)C(=O)NCc1ccc(C(=N)N)nc1)C(C)C")
8.59
>>> value("CC(=O)N[C@H](CC(C)C)C(=O)N[C@@H](CC(C)C)C(=O)N[C@@H](CC(C)C)C(=O)N[C@@H](CC(C)C)C(=O)N[C@@H](CCCNC(=N)N)C(=O)N[C@H](C(=O)N[C@@H](CCCCN)C(=O)NCc1ccc(C(=N)N)c(N)c1)C(C)C")
7.85
>>> value("CC(=O)N[C@H](CC(C)C)C(=O)N[C@@H](CC(C)C)C(=O)N[C@@H](CC(C)C)C(=O)N[C@@H](CC(C)C)C(=O)N[C@@H](CCCNC(=N)N)C(=O)N[C@H](C(=O)N[C@@H](CCCCN)C(=O)NCc1ccc2c(N)noc2c1)C(C)C")
6.30
>>> value("CC(=O)N[C@H](CC(C)C)C(=O)N[C@@H](CC(C)C)C(=O)N[C@@H](CC(C)C)C(=O)N[C@@H](CC(C)C)C(=O)N[C@@H](CCCNC(=N)N)C(=O)N[C@H](C(=O)N[C@@H](CCCCN)C(=O)NCc1c(F)c(F)c(C(=N)N)c(F)c1F)C(C)C")
6.62

(1) CC(=O)N[C@H](CC(C)C)C(=O)N[C@@H](CC(C)C)C(=O)N[C@@H](CC(C)C)C(=O)N[C@@H](CC(C)C)C(=O)N[C@@H](CCCNC(=N)N)C(=O)N[C@H](C(=O)N[C@@H](CCCCN)C(=O)N[C@H](CO)CCCNC(=N)N)C(C)C
(2) CC(=O)N[C@H](CC(C)C)C(=O)N[C@@H](CC(C)C)C(=O)N[C@@H](CC(C)C)C(=O)N[C@@H](CC(C)C)C(=O)N[C@@H](CCCNC(=N)N)C(=O)N[C@H](C(=O)N[C@@H](CCCCN)C(=O)NCc1ccc2c(N)n[nH]c2c1)C(C)C
## Input Which of the two gives a bigger number for pKi: 1 or 2 ? # answer = label of selected item
## Output 1
(1: 6.72, 2: 6.15)

----------
assay: Half life in human plasma; type: ADME, cell-free
observable: half-life (h)
Please give a number only; it is taken to be in h.

## Input Hello, please tell me recorded half-life for this one: Ac-LLLLRVKR-NH2
## Output 1.7

----------
target: Proprotein convertase subtilisin/kexin type 6 (Homo sapiens, UniProt P29122); assay: Inhibition of recombinant human PACE4 using pGlu-Arg-Thr-Lys-Arg-AMC peptide as substrate by spectrofluorometry
observable: Ki (nM)

>>> value("CC(=O)N[C@H](CC(C)C)C(=O)N[C@@H](CC(C)C)C(=O)N[C@@H](CC(C)C)C(=O)N[C@@H](CC(C)C)C(=O)N[C@@H](CCCNC(=N)N)C(=O)N[C@H](C(=O)N[C@@H](CCCCN)C(=O)NC/C=C/CNC(=N)N)C(C)C")
13

(I) CC(=O)N[C@H](CC(C)C)C(=O)N[C@@H](CC(C)C)C(=O)N[C@@H](CC(C)C)C(=O)N[C@@H](CC(C)C)C(=O)N[C@@H](CCCNC(=N)N)C(=O)N[C@H](C(=O)N[C@@H](CCCCN)C(=O)NCc1ccc(C(=N)N)c(O)c1)C(C)C
(II) CC(=O)N[C@H](CC(C)C)C(=O)N[C@@H](CC(C)C)C(=O)N[C@@H](CC(C)C)C(=O)N[C@@H](CC(C)C)C(=O)N[C@@H](CCCNC(=N)N)C(=O)N[C@H](C(=O)N[C@@H](CCCCN)C(=O)NCC#CCNC(=N)N)C(C)C
(III) CC(=O)N[C@H](CC(C)C)C(=O)N[C@@H](CC(C)C)C(=O)N[C@@H](CC(C)C)C(=O)N[C@@H](CC(C)C)C(=O)N[C@@H](CCCNC(=N)N)C(=O)N[C@H](C(=O)N[C@@H](CCCCN)C(=O)NCCc1ccc(C(=N)N)cc1)C(C)C
## Input Arrange the 3 molecules from largest to smallest Ki. Answer format: list of labels, ordered as asked.
## Output I, II, III
(I: 53 nM, II: 32 nM, III: 17 nM)

----------
organism: Homo sapiens; assay: Selectivity ratio of Ki for recombinant human furin to Ki for recombinant human PACE4
Square brackets hold non-standard residues; d marks the D form. Peptide text beside a SMILES is read from it. * marks the point of attachment. NH(4-amidinobenzyl) = N=C(N)c1ccc(CN*)cc1
observable: Ratio Ki

>>> value("CC(=O)N[C@H](CC(C)C)C(=O)N[C@@H](CC(C)C)C(=O)N[C@@H](CC(C)C)C(=O)N[C@@H](CC(C)C)C(=O)N[C@@H](CCCNC(=N)N)C(=O)N[C@H](C(=O)N[C@@H](CCCCN)C(=O)NCc1ccc2c(N)noc2c1)C(C)C")
1
>>> value("CC(=O)N[C@H](CC(C)C)C(=O)N[C@@H](CC(C)C)C(=O)N[C@@H](CC(C)C)C(=O)N[C@@H](CC(C)C)C(=O)N[C@@H](CCCNC(=N)N)C(=O)N[C@H](C(=O)N[C@@H](CCCCN)C(=O)NCCc1ccc(C(=N)N)cc1)C(C)C")
2
>>> value("CC(=O)N[C@H](CC(C)C)C(=O)N[C@@H](CC(C)C)C(=O)N[C@@H](CC(C)C)C(=O)N[C@@H](CC(C)C)C(=O)N[C@@H](CCCNC(=N)N)C(=O)N[C@H](C(=O)N[C@@H](CCCCN)C(=O)NC/C=C/CNC(=N)N)C(C)C")
3
>>> value("CC(=O)N[C@H](CC(C)C)C(=O)N[C@@H](CC(C)C)C(=O)N[C@@H](CC(C)C)C(=O)N[C@@H](CC(C)C)C(=O)N[C@@H](CCCNC(=N)N)C(=O)N[C@H](C(=O)N[C@@H](CCCCN)C(=O)NCc1c(F)c(F)c(C(=N)N)c(F)c1F)C(C)C")
2
>>> value("CC(=O)N[C@H](CC(C)C)C(=O)N[C@@H](CC(C)C)C(=O)N[C@@H](CC(C)C)C(=O)N[C@@H](CC(C)C)C(=O)N[C@@H](CCCNC(=N)N)C(=O)N[C@H](C(=O)N[C@@H](CCCCN)C(=O)NCc1ccc(C(=N)N)nc1)C(C)C")
8
>>> value("CC(=O)N[C@H](CC(C)C)C(=O)N[C@@H](CC(C)C)C(=O)N[C@@H](CC(C)C)C(=O)N[C@@H](CC(C)C)C(=O)N[C@@H](CCCNC(=N)N)C(=O)N[C@H](C(=O)N[C@@H](CCCCN)C(=O)NCc1ccc(C(=N)N)cc1)C(C)C (Ac-[dL]LLLRVK-{NH(4-amidinobenzyl)})")
2
>>> value("CC(=O)N[C@H](CC(C)C)C(=O)N[C@@H](CC(C)C)C(=O)N[C@@H](CC(C)C)C(=O)N[C@@H](CC(C)C)C(=O)N[C@@H](CCCNC(=N)N)C(=O)N[C@H](C(=O)N[C@@H](CCCCN)C(=O)NCc1ccc(C(=N)N)c(O)c1)C(C)C")
5
>>> value("CC(=O)N[C@H](CC(C)C)C(=O)N[C@@H](CC(C)C)C(=O)N[C@@H](CC(C)C)C(=O)N[C@@H](CC(C)C)C(=O)N[C@@H](CCCNC(=N)N)C(=O)N[C@H](C(=O)N[C@@H](CCCCN)C(=O)NCc1ccc(C(=N)N)c(N)c1)C(C)C")
4

(a) CC(=O)N[C@H](CC(C)C)C(=O)N[C@@H](CC(C)C)C(=O)N[C@@H](CC(C)C)C(=O)N[C@@H](CC(C)C)C(=O)N[C@@H](CCCNC(=N)N)C(=O)N[C@H](C(=O)N[C@@H](CCCCN)C(=O)NCc1ccc2c(N)n[nH]c2c1)C(C)C
(b) CC(=O)N[C@H](CC(C)C)C(=O)N[C@@H](CC(C)C)C(=O)N[C@@H](CC(C)C)C(=O)N[C@@H](CC(C)C)C(=O)N[C@@H](CCCNC(=N)N)C(=O)N[C@H](C(=O)N[C@@H](CCCCN)C(=O)N[C@@H](CCCNC(=N)N)C(N)=O)C(C)C
## Input Which of these two has the smaller recorded Ratio Ki: a or b ? # answer = label of selected item
## Output a

----------
biological target: Furin (Homo sapiens); experiment: Inhibition of recombinant human furin using pGlu-Arg-Thr-Lys-Arg-AMC peptide as substrate by spectrofluorometry
Sequence (P09958 whole entry): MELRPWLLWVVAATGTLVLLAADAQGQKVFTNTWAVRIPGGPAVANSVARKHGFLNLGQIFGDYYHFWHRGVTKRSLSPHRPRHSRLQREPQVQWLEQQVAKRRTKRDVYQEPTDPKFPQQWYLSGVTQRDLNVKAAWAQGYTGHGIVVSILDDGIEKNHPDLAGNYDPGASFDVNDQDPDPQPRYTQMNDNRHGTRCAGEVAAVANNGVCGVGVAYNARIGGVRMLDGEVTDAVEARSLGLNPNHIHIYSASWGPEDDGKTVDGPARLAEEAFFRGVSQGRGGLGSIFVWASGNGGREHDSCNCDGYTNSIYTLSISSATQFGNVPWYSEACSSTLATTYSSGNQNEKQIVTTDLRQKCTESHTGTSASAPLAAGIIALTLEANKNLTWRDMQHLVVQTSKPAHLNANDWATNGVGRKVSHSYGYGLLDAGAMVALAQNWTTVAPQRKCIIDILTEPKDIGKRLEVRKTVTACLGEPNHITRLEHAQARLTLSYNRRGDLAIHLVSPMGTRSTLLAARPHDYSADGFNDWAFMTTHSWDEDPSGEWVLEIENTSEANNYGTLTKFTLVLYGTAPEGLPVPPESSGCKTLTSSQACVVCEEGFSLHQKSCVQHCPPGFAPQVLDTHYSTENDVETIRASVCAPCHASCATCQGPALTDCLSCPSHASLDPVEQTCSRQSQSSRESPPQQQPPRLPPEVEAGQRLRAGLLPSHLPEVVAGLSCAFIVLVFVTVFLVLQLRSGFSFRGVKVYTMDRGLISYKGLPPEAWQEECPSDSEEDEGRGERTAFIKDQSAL
pKi: −log10 of the molar value.
observable: pKi

>>> value("CC(=O)N[C@H](CC(C)C)C(=O)N[C@@H](CC(C)C)C(=O)N[C@@H](CC(C)C)C(=O)N[C@@H](CC(C)C)C(=O)N[C@@H](CCCNC(=N)N)C(=O)N[C@H](C(=O)N[C@@H](CCCCN)C(=O)NCc1c(F)c(F)c(C(=N)N)c(F)c1F)C(C)C")
6.22

(1) CC(=O)N[C@H](CC(C)C)C(=O)N[C@@H](CC(C)C)C(=O)N[C@@H](CC(C)C)C(=O)N[C@@H](CC(C)C)C(=O)N[C@@H](CCCNC(=N)N)C(=O)N[C@H](C(=O)N[C@@H](CCCCN)C(=O)NCC#CCNC(=N)N)C(C)C
(2) CC(=O)N[C@H](CC(C)C)C(=O)N[C@@H](CC(C)C)C(=O)N[C@@H](CC(C)C)C(=O)N[C@@H](CC(C)C)C(=O)N[C@@H](CCCNC(=N)N)C(=O)N[C@H](C(=O)N[C@@H](CCCCN)C(=O)NCc1ccc2c(N)n[nH]c2c1)C(C)C
## Input Which of the two gives a bigger number for pKi: 1 or 2 ? # answer = label of selected item
## Output 1
(1: 7.22, 2: 6.08)

(I) CC(=O)N[C@H](CC(C)C)C(=O)N[C@@H](CC(C)C)C(=O)N[C@@H](CC(C)C)C(=O)N[C@@H](CC(C)C)C(=O)N[C@@H](CCCNC(=N)N)C(=O)N[C@H](C(=O)N[C@@H](CCCCN)C(=O)N[C@H](CO)CCCNC(=N)N)C(C)C
(II) CC(=O)N[C@H](CC(C)C)C(=O)N[C@@H](CC(C)C)C(=O)N[C@@H](CC(C)C)C(=O)N[C@@H](CC(C)C)C(=O)N[C@@H](CCCNC(=N)N)C(=O)N[C@H](C(=O)N[C@@H](CCCCN)C(=O)NCCc1ccc(C(=N)N)cc1)C(C)C
## Input Which of these two has the smaller recorded pKi: I or II ? # answer = label of selected item
## Output I
(I: 6.60, II: 7.39)

(A) CC(=O)N[C@H](CC(C)C)C(=O)N[C@@H](CC(C)C)C(=O)N[C@@H](CC(C)C)C(=O)N[C@@H](CC(C)C)C(=O)N[C@@H](CCCNC(=N)N)C(=O)N[C@H](C(=O)N[C@@H](CCCCN)C(=O)NC/C=C/CNC(=N)N)C(C)C
(B) CC(=O)N[C@H](CC(C)C)C(=O)N[C@@H](CC(C)C)C(=O)N[C@@H](CC(C)C)C(=O)N[C@@H](CC(C)C)C(=O)N[C@@H](CCCNC(=N)N)C(=O)N[C@H](C(=O)N[C@@H](CCCCN)C(=O)NCc1ccc(C(=N)N)c(O)c1)C(C)C
(C) CC(=O)N[C@H](CC(C)C)C(=O)N[C@@H](CC(C)C)C(=O)N[C@@H](CC(C)C)C(=O)N[C@@H](CC(C)C)C(=O)N[C@@H](CCCNC(=N)N)C(=O)N[C@H](C(=O)N[C@@H](CCCCN)C(=O)NCc1ccc2c(N)noc2c1)C(C)C
(D) CC(=O)N[C@H](CC(C)C)C(=O)N[C@@H](CC(C)C)C(=O)N[C@@H](CC(C)C)C(=O)N[C@@H](CC(C)C)C(=O)N[C@@H](CCCNC(=N)N)C(=O)N[C@H](C(=O)N[C@@H](CCCCN)C(=O)NCc1ccc(C(=N)N)nc1)C(C)C
## Input Would you mind ranking these compounds by ascending pKi? Answer format: list of labels, ordered as asked.
## Output C, B, A, D
